Entry source: patent US20170052184A1

Recorded Reactivity (OD 492 nm) for the following binders
Molecular target: T1, HCV bt-134-154 (Peptide 1, HCVc 134-154) (Hepatitis C virus (numbering per HCV-1), biotin (carboxy-terminal per; N-terminal per))
T1 peptide: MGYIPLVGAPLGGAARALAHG
Assay: EIA, captured mAb + biotin peptide
valueKind: Reactivity (OD 492 nm) (OD units)

• HCV 208B-589 (antibody, V domains shown) VH: QVQLQQSGAGLAKPGASVKMSCKASGYTFTANKMHWAKQRPGQGLEWIGYIDPSSGYTEYNHKIQDKATLTADTSSSTAYMQLSSLTFEDSAVYYCTNFAYWGQGTLVTVSA VL: DIVMTQTPLTLSVTIGQPASISCKSSQSLLFTNGKTYLNWFLQRPGQSPKRLIYLLSKLDSGVPDRFSGSGSGTDFTLKISRVEAEDLGVYYCLQSTYFPLTFGAGTKLELKR = 0.27
• HCV 208A-830 (antibody, V domains shown) VH: EVRLQQPGPEVEKPGASVKISCKTSGYTFTEYAIHWVKQSHGESLEWIGGINPSNGDPIYNQIFKDKATLTVDRSSNTAYMGLRSLTVGDSGVYFCVRRQLDYFDFWGQGASLTVSS VL: DIVLTQSPASLAVSLGQRATISCRSSQSVSTSRYSYLHWYQQKPGQPPKLLIKYASNLESGVPARFSGSGSGTDFTLNIHPVGEEDPATYYCQHSWEFPFTFGSGTKLEIKR = 0.07
• HCV 208B-471 (antibody, V domains shown) VH: QGQLQQSGPVLVKPGASEILYCKTSGFTFSSTYISWLKQKPGQSLEWIAWIYAGTGATNYNQKFTGKAQLTVDASSNTAYMHFSGLTPEDSAIYYCAISGAGVYWGQGTLVTVSA VL: DVVMTQTPLSLPVSLGDQASISCRSSQSLLHSNGNTYLEWYLQKPGQSPNLLIYNVSNRFSGVPDRFSGSGSGTDFALKISRVGAEDLGVYYCFQGSHVPLTFGAGTKLELKR = 1.62
